Tested On: T1, protein A (UniProt P38507 37-477)
T1 construct: also called Protein A superantigen
Method Notes: Heat/Cool phage ELISA: phage-displayed scFv, 80 C 10 min then 4 C 10 min, captured on coated protein A; signal as % of untreated sample
Procedure: The aggregation-resistance of clones was analyzed by measuring retention of signal after heat incubation in a phage ELISA format (McCafferty et al., 1990; Jespers et al., 2004). […] After three washes with PBS, bound phage particles were detected using an Extravidin-HRP conjugate (Sigma) and 3,3′,5,5′-tetramethylbenzidine (TMB) substrate. Absorbance was calculated by subtracting measurements at 450 and 650 nm. […]

Binder	Retained binding to protein A (%)
scFv DP47 VH T28R - linker - common VL (scFv, name in Kabat numbering, also called T28R (scFv)) scFv: QVQLLESGGGLVQPGGSLRLSCAASGFRFSSYAMSWVRQAPGKGLEWVSAISGSGGSTYYADSVKGRFTISRDNSKNTLYLQMNSLRAEDTAVYYCAKSYGAFDYWGQGTLVTVSSGGGGSGGGGSGGGGSTDIQMTQSPSSLSASVGDRVTITCRASQSISSYLNWYQQKPGKAPKLLIYAYSDLQSGVPSGFSGSGSGTDFTLTISSLQPEDFATYYCQQLMTHPTTFGQGTKVEIKR	4
